Listed here: items and their measured Ca.
species on record: Rattus norvegicus; test: Open TG-GATES - Regimen: Single; type: toxicity, organism-based, Sprague-Dawley; parameters: regimen Single, gender Male, age 6 weeks; conditions: in vivo, po, 1000 mg/kg, 24 h, tissue Plasma, route gavage, dose level High
PARAMETER MEASURED: Ca (mg/dL)

- COc1ccc2[nH]c([S+]([O-])Cc3ncc(C)c(OC)c3C)nc2c1 (centres undefined) [OMEPRAZOLE]: 10.1
- COC1=CC(=O)C[C@@H](C)[C@]12Oc1c(Cl)c(OC)cc(OC)c1C2=O [GRISEOFULVIN]: 10.9
- CCOC(=O)CCC(=O)O[C@H]1[C@H](O[C@@H]2[C@@H](C)[C@H](O[C@H]3C[C@@](C)(OC)[C@@H](O)[C@H](C)O3)[C@@H](C)C(=O)O[C@H](CC)[C@@](C)(O)[C@H](O)[C@@H](C)C(=O)[C@H](C)C[C@@]2(C)O)O[C@H](C)C[C@@H]1N(C)C [ERYTHROMYCIN ETHYLSUCCINATE]: 10.6
- NC(N)=Nc1nc(CSCCC(N)=NS(N)(=O)=O)cs1 [FAMOTIDINE]: 10.5

###

species on record: Rattus norvegicus; assay: Open TG-GATES - Regimen: Single; type: toxicity, organism-based, Sprague-Dawley; design: regimen Single, gender Male, age 6 weeks; conditions: in vivo, po, 100 mg/kg, 6 h, tissue Plasma, route gavage, dose level Low
Listed here: items and their measured RALB.
PARAMETER MEASURED: RALB (g/dL)

- COC1=CC(=O)C[C@@H](C)[C@]12Oc1c(Cl)c(OC)cc(OC)c1C2=O: 3.4
- NC(N)=Nc1nc(CSCCC(N)=NS(N)(=O)=O)cs1: 3.2
- CCOC(=O)CCC(=O)O[C@H]1[C@H](O[C@@H]2[C@@H](C)[C@H](O[C@H]3C[C@@](C)(OC)[C@@H](O)[C@H](C)O3)[C@@H](C)C(=O)O[C@H](CC)[C@@](C)(O)[C@H](O)[C@@H](C)C(=O)[C@H](C)C[C@@]2(C)O)O[C@H](C)C[C@@H]1N(C)C [ERYTHROMYCIN ETHYLSUCCINATE]: 2.8
- COc1ccc2[nH]c([S+]([O-])Cc3ncc(C)c(OC)c3C)nc2c1 (centres undefined): 3.3

###

organism: Rattus norvegicus; test: Open TG-GATES - Regimen: Single; assay type: toxicity, organism-based, Sprague-Dawley; design: regimen Single, gender Male, age 6 weeks; conditions: in vivo, po, 1000 mg/kg, 3 h, tissue Blood, route gavage, dose level High
PARAMETER MEASURED: Fbg (mg/dL)

* COc1ccc2[nH]c([S+]([O-])Cc3ncc(C)c(OC)c3C)nc2c1 (stereo not given) | 201.8
* NC(N)=Nc1nc(CSCCC(N)=NS(N)(=O)=O)cs1 | 209.8
* CC(C)OC(=O)C(C)(C)Oc1ccc(C(=O)c2ccc(Cl)cc2)cc1 [FENOFIBRATE] | 271.2
* CCOC(=O)CCC(=O)O[C@H]1[C@H](O[C@@H]2[C@@H](C)[C@H](O[C@H]3C[C@@](C)(OC)[C@@H](O)[C@H](C)O3)[C@@H](C)C(=O)O[C@H](CC)[C@@](C)(O)[C@H](O)[C@@H](C)C(=O)[C@H](C)C[C@@]2(C)O)O[C@H](C)C[C@@H]1N(C)C [ERYTHROMYCIN ETHYLSUCCINATE] | 305.8
* COC1=CC(=O)C[C@@H](C)[C@]12Oc1c(Cl)c(OC)cc(OC)c1C2=O | 212.2
